Numbers sourced from patent US4659732A.

Listed below: inhibition at 5 µg/mL values for each entry.
Target: 5-lipoxygenase (Homo sapiens)
Construct: The human polymorphonuclear leucocytes metabolize the arachidonic acid to give 5-hydroxy-5,8,11,14-eicosatetraenoic acid (5-HETE) and leucotriene B4; endogenous in cells; host or cells: human PMN leucocytes from heparinized whole blood
Assay: Inhibition of LTB4 synthesis in human PMN leucocytes (A 23 187 stimulated)
Type: cell-based
Conditions: 5 μg/ml
Text: The 5-lipoxygenase responsible for the biosynthesis of the leucotrienes B4, C4 and D4 is inhibited selectively at low concentrations. […] Inhibition of the liberation of 5-HETE and leucotriene B4 from the leucocytes constitutes a measure of the lipoxygenase-inhibiting effect of the compounds according to the invention (see Table 1). […]
Note: unit % is implicit; provide only the numeric part.

Some entries whose results are on file:
Return reported inhibition at 5 µg/mL; argument: COCC1=NN(C(C)c2ccc(Cl)c(Cl)c2)C(=O)C1=O (stereo not shown)
100

Return reported inhibition at 5 µg/mL; argument: CC1=NN(C(C)c2ccc(Cl)c(Cl)c2)C(=O)C1=O (stereo not shown)
84

Next:
Return reported inhibition at 5 µg/mL; argument: CC1=NN(C(C)c2cccc(C(F)(F)F)c2)C(=O)C1=O (stereo not shown)
73

Return reported inhibition at 5 µg/mL; argument: `COCC1=NN(CCOc2ccc3ccccc3c2)C(=O)C1=O`
100

Return reported inhibition at 5 µg/mL; argument: `CC1=NN(CCOc2ccc3ccccc3c2)C(=O)C1=O`
100

###

Tested on: leucocyte stickiness
Assay: Stickiness of leucocytes in hamster cheek pouch
Type: in vivo, Male Syrian golden hamsters
Details: Effect after administration of 1 mg/kg i.a.
Description: The reduction in the leucocyte stickiness is also responsible for the decrease in ischaemic areas since, after treatment with the compounds to be used according to the invention, the leucocytes pass through the microcirculatory region of these areas without reducing the supply to the corresponding tissue by totally or temporarily closing small vessels or capillaries. […]
property_measured: Inhibition of leucocyte stickiness

Return reported Inhibition of leucocyte stickiness; argument: `CC1=NN(CCOc2ccc3ccccc3c2)C(=O)C1=O`
inhibition

Return reported Inhibition of leucocyte stickiness; argument: CC1=NN(C(C)c2ccc(Cl)c(Cl)c2)C(=O)C1=O (centres unmarked)
no action

Return reported Inhibition of leucocyte stickiness; argument: `CC(C)(C)C1=NN(CCOc2ccccc2)C(=O)C1=O`
inhibition

Return reported Inhibition of leucocyte stickiness; argument: CC1=NN(C(C)c2ccc3c(c2)CCCC3)C(=O)C1=O (centres unmarked)
inhibition

Return reported Inhibition of leucocyte stickiness; argument: `CC1=NN(CCOc2ccccc2)C(=O)C1=O`
no effect

Return reported Inhibition of leucocyte stickiness; argument: `CCCC1=NN(CCOc2ccc3ccccc3c2)C(=O)C1=O`
inhibition

Return reported Inhibition of leucocyte stickiness; argument: CC1=NN(C(C)c2cccc(C(F)(F)F)c2)C(=O)C1=O (centres unmarked)
no effect

Return reported Inhibition of leucocyte stickiness; argument: `COCC1=NN(CCOc2ccc3ccccc3c2)C(=O)C1=O`
inhibition

Return reported Inhibition of leucocyte stickiness; argument: `O=C1C(=O)N(CCOc2ccc3ccccc3c2)N=C1CC1CCCCC1`
no action

Return reported Inhibition of leucocyte stickiness; argument: COCC1=NN(C(C)c2ccc(Cl)c(Cl)c2)C(=O)C1=O (centres unmarked)
no effect

We next turn to a different compound, shown below.
Return reported Inhibition of leucocyte stickiness; argument: CC1=NN(C(C)C2CCCCC2)C(=O)C1=O (centres unmarked)
inhibition

###

Target: 5-lipoxygenase (Homo sapiens, UniProt P09917)
Construct: The human polymorphonuclear leucocytes metabolize the arachidonic acid to give 5-hydroxy-5,8,11,14-eicosatetraenoic acid (5-HETE) and leucotriene B4; endogenous in cells; host or cells: human PMN leucocytes from heparinized whole blood
Sequence (P09917 1-674): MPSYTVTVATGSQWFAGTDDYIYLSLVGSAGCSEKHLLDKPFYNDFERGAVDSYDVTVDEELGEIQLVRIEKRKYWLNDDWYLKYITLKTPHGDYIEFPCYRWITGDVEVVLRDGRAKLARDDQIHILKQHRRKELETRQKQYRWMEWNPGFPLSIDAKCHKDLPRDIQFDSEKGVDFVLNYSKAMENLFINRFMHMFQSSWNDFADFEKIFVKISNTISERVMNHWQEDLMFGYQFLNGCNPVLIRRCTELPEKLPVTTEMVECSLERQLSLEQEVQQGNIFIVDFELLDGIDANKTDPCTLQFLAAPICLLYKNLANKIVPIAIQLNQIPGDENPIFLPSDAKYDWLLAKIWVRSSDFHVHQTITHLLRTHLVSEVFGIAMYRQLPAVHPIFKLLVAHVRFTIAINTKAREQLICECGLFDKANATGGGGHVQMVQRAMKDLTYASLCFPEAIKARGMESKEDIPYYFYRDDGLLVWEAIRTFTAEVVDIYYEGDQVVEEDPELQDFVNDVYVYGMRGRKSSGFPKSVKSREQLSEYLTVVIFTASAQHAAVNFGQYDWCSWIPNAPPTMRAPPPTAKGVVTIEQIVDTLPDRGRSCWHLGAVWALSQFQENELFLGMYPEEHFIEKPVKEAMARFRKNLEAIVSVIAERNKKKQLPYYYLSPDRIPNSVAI
Test: Inhibition of LTB4 synthesis in human PMN leucocytes (A 23 187 stimulated)
Assay type: cell-based
Settings: 0.1 μg/ml
property_measured: inhibition at 0.1 µg/mL (%)
Note: unit % is implicit; provide only the numeric part.

Some entries whose results are on file:
Return reported inhibition at 0.1 µg/mL; argument: COCC1=NN(CCOc2ccc3ccccc3c2)C(=O)C1=O [Example 4]
15

Return reported inhibition at 0.1 µg/mL; argument: COCC1=NN(C(C)c2ccc(Cl)c(Cl)c2)C(=O)C1=O (stereo not shown) [Example 3]
6

Return reported inhibition at 0.1 µg/mL; argument: CC1=NN(CCOc2ccc3ccccc3c2)C(=O)C1=O [Example 1]
29

We next turn to a different molecule, shown below.
Return reported inhibition at 0.1 µg/mL; argument: CC1=NN(CCOc2ccccc2)C(=O)C1=O [Example 6]
38

###

Biological target: 5-lipoxygenase (Homo sapiens)
Construct: The human polymorphonuclear leucocytes metabolize the arachidonic acid to give 5-hydroxy-5,8,11,14-eicosatetraenoic acid (5-HETE) and leucotriene B4; endogenous in cells; host or cells: human PMN leucocytes from heparinized whole blood
Test: Inhibition of LTB4 synthesis in human PMN leucocytes (A 23 187 stimulated)
Type: cell-based
Conditions: 0.5 μg/ml
Lab note: compare inhibition at 0.5 µg/mL against 20%. Equal or greater, write Satisfied. Smaller, write Not satisfied.

These recorded examples may help you get a feel for the data.
Threshold query (inhibition at 0.5 µg/mL >= 20%) on `O=C1C(=O)N(CCOc2ccc3ccccc3c2)N=C1CC1CCCCC1`
Not satisfied

Threshold query (inhibition at 0.5 µg/mL >= 20%) on `CC1=NN(CCOc2ccccc2)C(=O)C1=O`
Satisfied

Next:
Threshold query (inhibition at 0.5 µg/mL >= 20%) on `CCCC1=NN(CCOc2ccc3ccccc3c2)C(=O)C1=O`
Not satisfied

Threshold query (inhibition at 0.5 µg/mL >= 20%) on CC1=NN(C(C)c2ccc(Cl)c(Cl)c2)C(=O)C1=O (centres unmarked)
Not satisfied

Threshold query (inhibition at 0.5 µg/mL >= 20%) on `COCC1=NN(CCOc2ccc3ccccc3c2)C(=O)C1=O`
Satisfied

Threshold query (inhibition at 0.5 µg/mL >= 20%) on CC1=NN(C(C)c2ccc3c(c2)CCCC3)C(=O)C1=O (centres unmarked)
Not satisfied

Threshold query (inhibition at 0.5 µg/mL >= 20%) on `CC1=NN(CCOc2ccc3ccccc3c2)C(=O)C1=O`
Satisfied

###

Target: 5-lipoxygenase (Homo sapiens, UniProt P09917)
Construct: The human polymorphonuclear leucocytes metabolize the arachidonic acid to give 5-hydroxy-5,8,11,14-eicosatetraenoic acid (5-HETE) and leucotriene B4; endogenous in cells; host or cells: human PMN leucocytes from heparinized whole blood
Sequence (P09917 1-674): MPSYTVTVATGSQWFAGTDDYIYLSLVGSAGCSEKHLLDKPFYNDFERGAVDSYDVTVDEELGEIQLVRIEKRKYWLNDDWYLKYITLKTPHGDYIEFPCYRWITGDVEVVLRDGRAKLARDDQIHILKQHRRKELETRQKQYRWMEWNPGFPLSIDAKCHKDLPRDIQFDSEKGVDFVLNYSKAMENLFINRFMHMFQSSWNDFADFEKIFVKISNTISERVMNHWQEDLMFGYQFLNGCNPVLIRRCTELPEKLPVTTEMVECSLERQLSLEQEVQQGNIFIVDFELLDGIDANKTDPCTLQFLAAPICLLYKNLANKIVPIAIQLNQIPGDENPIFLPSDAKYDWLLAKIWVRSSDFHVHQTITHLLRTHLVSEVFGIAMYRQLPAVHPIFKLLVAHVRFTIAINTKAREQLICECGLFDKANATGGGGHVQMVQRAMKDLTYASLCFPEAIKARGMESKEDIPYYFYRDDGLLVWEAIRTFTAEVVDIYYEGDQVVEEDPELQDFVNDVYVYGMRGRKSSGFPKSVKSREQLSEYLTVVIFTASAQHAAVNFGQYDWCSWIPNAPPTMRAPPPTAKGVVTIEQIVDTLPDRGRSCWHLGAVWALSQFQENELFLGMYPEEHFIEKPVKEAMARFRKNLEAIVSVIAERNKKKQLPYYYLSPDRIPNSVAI
Test: Inhibition of LTB4 synthesis in human PMN leucocytes (A 23 187 stimulated)
Format: cell-based
Conditions: 1 μg/ml
property_measured: inhibition at 1 µg/mL (%)
Note: unit % is implicit; provide only the numeric part.

Some entries whose results are on file:
Given the entry `CC1=NN(CCOc2ccc3ccccc3c2)C(=O)C1=O` , what inhibition at 1 µg/mL was observed with 5-lipoxygenase (Homo sapiens, UniProt P09917)?
85

Given the entry `O=C1C(=O)N(CCOc2ccc3ccccc3c2)N=C1CC1CCCCC1` , what inhibition at 1 µg/mL was observed with 5-lipoxygenase (Homo sapiens, UniProt P09917)?
35

Given the entry COCC1=NN(C(C)c2ccc(Cl)c(Cl)c2)C(=O)C1=O (centres unmarked) , what inhibition at 1 µg/mL was observed with 5-lipoxygenase (Homo sapiens, UniProt P09917)?
37

Next:
Given the entry `CCCC1=NN(CCOc2ccc3ccccc3c2)C(=O)C1=O` , what inhibition at 1 µg/mL was observed with 5-lipoxygenase (Homo sapiens, UniProt P09917)?
56

Given the entry `CC1=NN(CCOc2ccccc2)C(=O)C1=O` , what inhibition at 1 µg/mL was observed with 5-lipoxygenase (Homo sapiens, UniProt P09917)?
88

Given the entry CC1=NN(C(C)C2CCCCC2)C(=O)C1=O (centres unmarked) , what inhibition at 1 µg/mL was observed with 5-lipoxygenase (Homo sapiens, UniProt P09917)?
29

Given the entry `CC(C)(C)C1=NN(CCOc2ccccc2)C(=O)C1=O` , what inhibition at 1 µg/mL was observed with 5-lipoxygenase (Homo sapiens, UniProt P09917)?
12
